Values were extracted from PubChem BioAssay (NCI).

Test system: DU-145 prostate
Assay: NCI tumour cell line growth inhibition, 48 h
Would you kindly list TGI for each of these molecules?

(Q) Any idea what TGI was measured for "O=c1[nH]nc(-c2ccccc2)n1/N=C\c1ccccc1" ?
(A) > 100 µM

(Q) What do we get for "OC1(c2ccccc2)CCN(Cc2c[nH]c3ccccc23)CC1" ?
(A) > 100 µM

(Q) What do we get for "O=C(Nc1cccc(-n2cc(-c3ccncc3)c(-c3ccc(Cl)c(O)c3)n2)c1)Nc1cc(C(F)(F)F)cc(C(F)(F)F)c1" ?
(A) 2.94 µM

(Q) What do we get for "COc1ccc(C/C(C)=C(/c2ccc(OCCN3CCCCC3)cc2)c2ccc(OC(=O)NCc3ccccc3)cc2)cc1" ?
(A) 0.805 µM

(Q) What do we get for CC(=O)NCCC1CN(C(=O)/C=C/I)c2ccccc21 (stereo not given) ?
(A) 29.2 µM

(Q) What do we get for "Cc1ccc(/C(O)=C/c2nc3ccccc3sc2=O)c(C)c1" ?
(A) > 100 µM

(Q) What do we get for CSCCC(N)C(=O)NCCNc1ccc(NCCNC(=O)C(N)CCSC)c2c1C(=O)c1ccccc1C2=O (stereo not given) ?
(A) 5.4 µM

(Q) What do we get for "NCCCN(CCCN(C(=O)Nc1ccccc1)c1ccccc1)C(=O)Nc1ccccc1" ?
(A) > 100 µM

(Q) What do we get for "O=C(NCCCCCCCCCCCCNC(=O)Nc1cccc2ccccc12)Nc1cccc2ccccc12" ?
(A) 70.9 µM

(Q) What do we get for "COc1ccc(CCN2CC=Cn3c2nc2ccccc2c3=O)cc1" ?
(A) > 23.3 µM

(Q) What do we get for Cc1csc(NC23CC4CC(CC(C4)C2)C3)[n+]1C(P(=O)([O-])O)P(=O)(O)O (stereo not given) ?
(A) > 100 µM

(Q) What do we get for "O=C1NNC2(C(=O)N1)c1ccccc1-c1ccccc12" ?
(A) > 10 µM

(Q) What do we get for "C=C[C@@H](C)[C@H](NS(=O)(=O)c1ccc(C)cc1)C(=O)OCC" ?
(A) > 100 µM

(Q) What do we get for "O=C(Nc1ccc(Br)cc1F)c1cc(I)ccc1O" ?
(A) > 100 µM

(Q) What do we get for "CCCCCCCC/C=C\CCCCCCC/C=C1\C[C@](/C=C/C(=O)OC)(CO)OC1=O" ?
(A) 24.6 µM

(Q) What do we get for CN(C)CCN1C(=O)c2c(c3c4ccccc4n4c3c3c2c2ccccc2n3C2CC(O)C(O)C4(C)O2)C1=O (stereo not given) ?
(A) 9.42 µM

(Q) What do we get for CO/N=C1\CC(NC(=O)CNC(=O)OC(C)(C)C)c2ccsc21 (stereo not given) ?
(A) > 100 µM

(Q) What do we get for "Cc1ccc2c(=O)cc(-c3ccc(Cl)s3)[nH]c2n1" ?
(A) > 100 µM

(Q) What do we get for "Cc1cc(-c2nc3cc(F)ccc3s2)ccc1NC(=O)[C@@H](N)CCCCN" ?
(A) 28.4 µM

(Q) What do we get for "Cc1cc([N+](=O)[O-])c(NS(=O)(=O)c2cccc(C(=O)O)c2)cc1-c1cccnc1" ?
(A) > 100 µM

(Q) What do we get for "O=[N+]([O-])c1ccc2sc(C=Nc3cnccn3)cc2c1" ?
(A) > 100 µM

(Q) What do we get for "NC(=O)NNc1nc(-c2ccccc2)cs1" ?
(A) > 100 µM

(Q) What do we get for "COc1cc(OC)c2nc(C)c3c(c2c1)SCC3" ?
(A) > 100 µM

(Q) What do we get for "Cc1ccc(S(=O)(=O)n2c3ccc(Br)cc3c3nc4ccccc4nc32)cc1" ?
(A) > 100 µM

(Q) What do we get for CC1CCCC2(CC[N+](C)(CCC[N+](C)(C)C)CC2)C1 (stereo not given) ?
(A) > 100 µM
